Target: Tek (Homo sapiens)
Sequence (Q02763 23-1124, species assumed): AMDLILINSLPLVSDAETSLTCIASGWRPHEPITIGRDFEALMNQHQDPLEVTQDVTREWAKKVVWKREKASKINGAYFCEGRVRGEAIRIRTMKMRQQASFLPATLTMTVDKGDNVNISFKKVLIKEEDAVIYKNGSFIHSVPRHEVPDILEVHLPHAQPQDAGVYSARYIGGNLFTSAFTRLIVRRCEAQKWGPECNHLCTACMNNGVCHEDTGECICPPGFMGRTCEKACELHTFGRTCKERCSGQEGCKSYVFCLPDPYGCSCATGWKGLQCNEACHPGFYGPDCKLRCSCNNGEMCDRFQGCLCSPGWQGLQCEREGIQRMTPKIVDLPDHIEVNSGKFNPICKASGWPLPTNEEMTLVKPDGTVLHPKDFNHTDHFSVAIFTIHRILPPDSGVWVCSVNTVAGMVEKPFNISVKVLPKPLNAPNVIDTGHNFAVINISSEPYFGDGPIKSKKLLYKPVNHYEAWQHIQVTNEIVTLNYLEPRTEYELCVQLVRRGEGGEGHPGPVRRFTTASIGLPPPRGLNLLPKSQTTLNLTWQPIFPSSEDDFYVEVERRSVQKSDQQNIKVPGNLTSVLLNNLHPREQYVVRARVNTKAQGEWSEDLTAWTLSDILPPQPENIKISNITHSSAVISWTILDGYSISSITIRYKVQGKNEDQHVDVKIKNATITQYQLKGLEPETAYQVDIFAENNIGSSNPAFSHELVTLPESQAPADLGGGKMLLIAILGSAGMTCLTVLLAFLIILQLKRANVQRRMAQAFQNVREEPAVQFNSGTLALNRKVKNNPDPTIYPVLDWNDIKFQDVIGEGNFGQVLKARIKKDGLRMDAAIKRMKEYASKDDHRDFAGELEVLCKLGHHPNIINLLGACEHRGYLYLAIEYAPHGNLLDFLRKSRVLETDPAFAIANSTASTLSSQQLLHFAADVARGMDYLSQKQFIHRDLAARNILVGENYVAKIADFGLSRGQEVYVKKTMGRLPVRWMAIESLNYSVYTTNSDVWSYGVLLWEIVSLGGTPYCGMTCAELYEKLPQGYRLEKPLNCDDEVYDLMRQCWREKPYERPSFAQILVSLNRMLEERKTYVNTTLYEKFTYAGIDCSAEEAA
pIC50: −log10 of the molar value.
readout: pIC50

Example entries begin here.
INPUT: Fill blank: measured pIC50 of the molecule `COc1cc(Nc2ncnc(-c3ccc(NCCCO)nc3)n2)cc(OC)c1OC` is ____.
OUTPUT: < 4.96

INPUT: Fill blank: measured pIC50 of the molecule `C=CCNc1ncccc1-c1ncnc(Nc2cc(OC)c(OC)c(OC)c2)n1` is ____.
OUTPUT: < 4.94

INPUT: Fill blank: measured pIC50 of the molecule `Nc1ncnc(Nc2ccc(C3CCCCC3)cc2)n1` is ____.
OUTPUT: < 4.78

INPUT: Fill blank: measured pIC50 of the molecule COc1cc(Nc2ncnc(N3c4ccccc4CC3C)n2)cc(OC)c1OC (centres unmarked) is ____.
OUTPUT: 5.05 to 5.21

New cases:
INPUT: Fill blank: measured pIC50 of the molecule `COc1cc(Nc2ncnc(-n3ccc4cc(Cl)ccc43)n2)cc(OC)c1OC` is ____.
OUTPUT: < 4.96

INPUT: Fill blank: measured pIC50 of the molecule `COc1cc(Nc2ncnc(Nc3cc(C(C)(C)C)[nH]n3)n2)cc(OC)c1OC` is ____.
OUTPUT: < 4.95

INPUT: Fill blank: measured pIC50 of the molecule `COc1ccc(Nc2ncccc2-c2ncnc(Nc3cc(OC)c(OC)c(OC)c3)n2)c(C)c1` is ____.
OUTPUT: 5.02 to 5.13

INPUT: Fill blank: measured pIC50 of the molecule `COc1cc(Nc2ncnc(-n3c(NCc4cccs4)nc4ccccc43)n2)cc(OC)c1OC` is ____.
OUTPUT: 5.15 to 5.31

INPUT: Fill blank: measured pIC50 of the molecule `COc1cc(Nc2ncnc(N(CC(=O)O)c3ccc4c(c3)OCO4)n2)cc(OC)c1OC` is ____.
OUTPUT: < 5.01

INPUT: Fill blank: measured pIC50 of the molecule `COc1cc(Nc2ncnc(Nc3ccc(OCc4ccccc4)cc3)n2)cc(OC)c1OC` is ____.
OUTPUT: 5.01 to 5.12

----------
Quick reference for pIC50 among some molecules
Target: EGFR (Homo sapiens)
Construct: Kinases are expressed as either kinase domains or full length constructs; made in house
Assay: Kinase inhibition assay (33P transfer), EGFR
Type: biochemical
Conditions: Table 2, kinase inhibition class; read-out: EGFR-1
pIC50: −log10 of the molar value.

Example entries begin here.
INPUT: Fill blank: measured pIC50 of the molecule COc1cc(Nc2ncnc(-n3ccc4ccc(Cl)cc43)n2)cc(OC)c1OC [Compound 237] is ____.
OUTPUT: 4.96 to 5.07

INPUT: Fill blank: measured pIC50 of the molecule COc1cc(Nc2ncnc(Nc3ccc4ccccc4c3)n2)cc(OC)c1OC [Compound 96] is ____.
OUTPUT: 5.23 to 6.00

INPUT: Fill blank: measured pIC50 of the molecule COc1cc(Nc2ncnc(-n3c(NC4CCCc5ccccc54)nc4ccccc43)n2)cc(OC)c1OC (centres unmarked) [Compound 1043] is ____.
OUTPUT: 5.07 to 5.17

INPUT: Fill blank: measured pIC50 of the molecule Fc1ccccc1Nc1ncnc(-c2ccccc2)n1 [Compound 20] is ____.
OUTPUT: < 4.77

INPUT: Fill blank: measured pIC50 of the molecule COc1cc(Nc2ncnc(-n3c(Nc4ccc5[nH]ncc5c4)nc4ccccc43)n2)cc(OC)c1OC [Compound 404] is ____.
OUTPUT: 5.05 to 5.16

New cases:
INPUT: Fill blank: measured pIC50 of the molecule COc1ccc2c(ccn2-c2ncnc(Nc3cc(OC)c(OC)c(OC)c3)n2)c1 [Compound 196] is ____.
OUTPUT: 4.96 to 5.07

INPUT: Fill blank: measured pIC50 of the molecule CN(c1cccc(Cl)c1)c1ncnc(Nc2cccc(Br)c2)n1 [Compound 707] is ____.
OUTPUT: > 5.99

INPUT: Fill blank: measured pIC50 of the molecule OCCCNc1ncnc(-c2ccccc2)n1 [Compound 971] is ____.
OUTPUT: < 4.71

INPUT: Fill blank: measured pIC50 of the molecule COc1cc(Nc2ncnc(N3c4ccccc4CCC3C)n2)cc(OC)c1OC (centres unmarked) [Compound 612] is ____.
OUTPUT: 5.23 to 6.01

INPUT: Fill blank: measured pIC50 of the molecule O=c1[nH]c2ccccc2n1-c1ncnc(Nc2ccccc2)n1 [Compound 482] is ____.
OUTPUT: < 4.83

INPUT: Fill blank: measured pIC50 of the molecule COc1cc(Nc2ncnc(Nc3cc(-c4ccc(C(=O)O)cc4)n[nH]3)n2)cc(OC)c1OC [Compound 1004] is ____.
OUTPUT: 5.29 to 6.06

INPUT: Fill blank: measured pIC50 of the molecule CCN(CC)CCCNc1ccc(-c2ncnc(Nc3cc(OC)c(OC)c(OC)c3)n2)cn1 [Compound 448] is ____.
OUTPUT: < 5.02

INPUT: Fill blank: measured pIC50 of the molecule COc1cc(Nc2ncnc(-n3c(NCc4ccccn4)nc4ccccc43)n2)cc(OC)c1OCCN1CCOCC1 [Compound 519] is ____.
OUTPUT: < 5.11

----------
Quick reference for IC50 among some molecules
Molecular target: EGFR (Homo sapiens, UniProt P00533)
Construct: Kinases are expressed as either kinase domains or full length constructs; made in house
Sequence (P00533 25-1210, species assumed): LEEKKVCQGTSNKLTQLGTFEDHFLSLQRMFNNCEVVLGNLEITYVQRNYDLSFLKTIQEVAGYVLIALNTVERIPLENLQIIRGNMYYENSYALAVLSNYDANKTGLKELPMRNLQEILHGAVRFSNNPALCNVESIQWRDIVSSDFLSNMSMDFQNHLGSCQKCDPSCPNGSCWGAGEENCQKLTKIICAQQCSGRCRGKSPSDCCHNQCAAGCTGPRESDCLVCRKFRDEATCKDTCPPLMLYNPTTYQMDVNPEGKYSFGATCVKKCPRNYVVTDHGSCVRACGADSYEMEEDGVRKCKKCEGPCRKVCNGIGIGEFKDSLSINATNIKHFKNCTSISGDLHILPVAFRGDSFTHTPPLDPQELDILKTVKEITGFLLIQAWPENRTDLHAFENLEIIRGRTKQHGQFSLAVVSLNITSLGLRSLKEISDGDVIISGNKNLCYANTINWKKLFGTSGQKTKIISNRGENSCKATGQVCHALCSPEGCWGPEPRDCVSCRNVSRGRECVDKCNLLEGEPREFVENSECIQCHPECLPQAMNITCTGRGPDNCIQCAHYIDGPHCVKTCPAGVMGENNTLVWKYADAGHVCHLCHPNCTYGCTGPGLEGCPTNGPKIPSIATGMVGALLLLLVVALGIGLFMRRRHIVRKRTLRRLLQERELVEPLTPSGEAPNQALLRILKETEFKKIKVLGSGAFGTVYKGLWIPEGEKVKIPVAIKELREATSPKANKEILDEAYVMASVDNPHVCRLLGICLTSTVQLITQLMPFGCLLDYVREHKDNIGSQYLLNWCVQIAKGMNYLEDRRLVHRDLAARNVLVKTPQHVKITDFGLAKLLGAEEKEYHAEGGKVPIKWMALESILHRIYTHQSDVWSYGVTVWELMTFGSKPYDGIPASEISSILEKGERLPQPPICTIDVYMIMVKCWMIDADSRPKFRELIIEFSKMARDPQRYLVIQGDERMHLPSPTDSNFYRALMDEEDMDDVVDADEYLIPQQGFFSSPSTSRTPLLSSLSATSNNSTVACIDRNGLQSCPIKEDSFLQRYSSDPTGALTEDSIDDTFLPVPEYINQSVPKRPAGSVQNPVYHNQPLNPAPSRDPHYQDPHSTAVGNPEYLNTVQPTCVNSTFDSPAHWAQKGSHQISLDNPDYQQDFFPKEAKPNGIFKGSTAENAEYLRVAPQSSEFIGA
Assay: Kinase inhibition assay (33P transfer), EGFR
Format: biochemical
Conditions: Table 2, kinase inhibition class; read-out: EGFR-1

Example entries begin here.
INPUT: Fill blank: measured IC50 of the molecule COc1cc(Nc2ncnc(N3CCCc4ccccc43)n2)cc(OC)c1OC [Compound 609] is ____.
OUTPUT: < 1.02 µM

INPUT: Fill blank: measured IC50 of the molecule COc1cc(Nc2ncnc(-n3ccc4cccnc43)n2)cc(OC)c1OC [Compound 327] is ____.
OUTPUT: > 11.9 µM

INPUT: Fill blank: measured IC50 of the molecule CC(C)(C)c1cc(Nc2ncnc(Nc3cccc(Cl)c3)n2)[nH]n1 [Compound 1007] is ____.
OUTPUT: < 1.16 µM

INPUT: Fill blank: measured IC50 of the molecule COc1cc(Nc2ncnc(Nc3ccc(F)cc3)n2)cc(OC)c1OC [Compound 303] is ____.
OUTPUT: 1.08 to 6.46 µM

INPUT: Fill blank: measured IC50 of the molecule NC(=O)Cc1ccc(Nc2ncnc(Nc3cc(-c4ccccc4)n[nH]3)n2)cc1 [Compound 573] is ____.
OUTPUT: 1.04 to 6.21 µM

INPUT: Fill blank: measured IC50 of the molecule COc1cc(Nc2ncnc(-n3c(NCc4ccccc4C)nc4ccccc43)n2)cc(OC)c1OC [Compound 511] is ____.
OUTPUT: > 9.04 µM

New cases:
INPUT: Fill blank: measured IC50 of the molecule COC(=O)Cc1cccc(Nc2ncnc(-n3c(NCc4ccc(OC)cc4)nc4ccccc43)n2)c1 [Compound 548] is ____.
OUTPUT: > 9.08 µM

INPUT: Fill blank: measured IC50 of the molecule COc1cc(Nc2ncnc(-n3c(NCc4ccc(N(C)C)cc4)nc4ccccc43)n2)cc(OC)c1OC [Compound 593] is ____.
OUTPUT: 4.56 to 6.65 µM

----------
Biological target: Kdr (Homo sapiens)
Construct: Kinases are expressed as either kinase domains or full length constructs; made in house
Sequence (P35968 20-1356, species assumed): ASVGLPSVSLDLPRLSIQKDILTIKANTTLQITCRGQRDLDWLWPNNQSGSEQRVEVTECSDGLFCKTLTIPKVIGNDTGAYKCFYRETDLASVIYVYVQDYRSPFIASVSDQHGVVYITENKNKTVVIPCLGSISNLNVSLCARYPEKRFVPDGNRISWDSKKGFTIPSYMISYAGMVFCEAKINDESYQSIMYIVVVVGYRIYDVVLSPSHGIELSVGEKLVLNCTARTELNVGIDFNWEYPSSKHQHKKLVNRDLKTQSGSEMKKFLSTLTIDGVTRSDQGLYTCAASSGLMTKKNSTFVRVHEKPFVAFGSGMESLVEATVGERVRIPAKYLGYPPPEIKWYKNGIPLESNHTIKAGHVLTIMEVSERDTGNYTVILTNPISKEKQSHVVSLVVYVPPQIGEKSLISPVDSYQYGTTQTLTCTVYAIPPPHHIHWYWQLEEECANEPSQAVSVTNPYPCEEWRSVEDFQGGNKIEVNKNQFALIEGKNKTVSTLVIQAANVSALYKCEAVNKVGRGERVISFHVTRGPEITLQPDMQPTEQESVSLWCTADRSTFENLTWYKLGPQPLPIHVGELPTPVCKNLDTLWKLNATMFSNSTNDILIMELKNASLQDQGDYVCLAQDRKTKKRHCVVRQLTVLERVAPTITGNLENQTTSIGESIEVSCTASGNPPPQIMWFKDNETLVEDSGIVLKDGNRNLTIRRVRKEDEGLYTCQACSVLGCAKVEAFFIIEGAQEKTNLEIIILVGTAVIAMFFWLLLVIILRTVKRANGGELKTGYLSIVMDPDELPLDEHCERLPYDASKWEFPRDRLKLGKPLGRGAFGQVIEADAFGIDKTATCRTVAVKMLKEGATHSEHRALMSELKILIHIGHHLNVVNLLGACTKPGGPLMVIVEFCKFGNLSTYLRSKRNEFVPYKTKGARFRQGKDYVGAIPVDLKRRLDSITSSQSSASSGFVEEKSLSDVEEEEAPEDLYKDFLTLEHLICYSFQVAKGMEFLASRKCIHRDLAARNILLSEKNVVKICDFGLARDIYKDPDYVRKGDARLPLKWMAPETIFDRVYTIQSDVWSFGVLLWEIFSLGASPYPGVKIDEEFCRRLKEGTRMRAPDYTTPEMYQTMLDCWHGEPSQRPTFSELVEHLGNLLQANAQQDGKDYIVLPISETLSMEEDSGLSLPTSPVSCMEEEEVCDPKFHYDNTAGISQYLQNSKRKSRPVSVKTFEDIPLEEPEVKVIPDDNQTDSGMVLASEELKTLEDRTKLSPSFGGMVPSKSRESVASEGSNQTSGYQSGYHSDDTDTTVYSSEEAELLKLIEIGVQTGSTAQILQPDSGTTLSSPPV
Assay: Kinase inhibition assay (33P transfer), Kdr
Assay type: biochemical
Conditions: Table 3; read-out: KDR-1
pIC50: −log10 of the molar value.
Quick reference for pIC50 among some compounds

INPUT: Fill blank: measured pIC50 of the compound `COc1cc(Nc2ncnc(-n3c(Nc4ccc(Cl)cc4)nc4ccccc43)n2)cc(OC)c1OC` is ____.
OUTPUT: 5.32 to 6.10

INPUT: Fill blank: measured pIC50 of the compound `COc1cc(Nc2ncnc(Nc3cc(C(C)(C)C)[nH]n3)n2)cc(OC)c1OC` is ____.
OUTPUT: 5.22 to 6.00

INPUT: Fill blank: measured pIC50 of the compound `CC(C)(C)OC(=O)NCCCNc1ncnc(-c2ccccc2)n1` is ____.
OUTPUT: < 4.86

INPUT: Fill blank: measured pIC50 of the compound `COc1cc(Nc2ncnc(Nc3ccc(C(=O)O)cc3)n2)cc(OC)c1OC` is ____.
OUTPUT: 5.22 to 6.00

New cases:
INPUT: Fill blank: measured pIC50 of the compound `COc1ccc(Nc2ncnc(Nc3ccc(OC)c(OC)c3)n2)cc1OC` is ____.
OUTPUT: 5.20 to 5.98

INPUT: Fill blank: measured pIC50 of the compound `COC(=O)c1ccc(Nc2ncnc(Nc3cc(-c4ccco4)n[nH]3)n2)cc1` is ____.
OUTPUT: < 4.92

INPUT: Fill blank: measured pIC50 of the compound `COc1cc(Nc2ncnc(Nc3c(C)n(C)n(-c4ccccc4)c3=O)n2)cc(OC)c1OC` is ____.
OUTPUT: 5.01 to 5.12

INPUT: Fill blank: measured pIC50 of the compound `COc1cc(Nc2ncnc(-n3cc(OC(C)=O)c4ccccc43)n2)cc(OC)c1OC` is ____.
OUTPUT: 5.09 to 5.26
